The origin of these recorded values is patent US9676789B2.

Measured IC50 by item
# System: NB4 (acute promyelocytic leukemia, AML)
# protocol.notes: MTT leukemia cell growth inhibition, 72 h
# Type: cell-based, human
# settings: Homo sapiens; NB4, 72 h; read-out: IC50
Give your result in µg/mL as a bare value.

molecule: COC1=C[C@]23CCCN2CCc2cc4c(cc2[C@@H]3[C@@H]1OC(=O)[C@@](O)(CCCC(C)(C)O)CC(=O)N1CCCC(C)C1)OCO4 (stereo partly shown)
test.system: NB4 (acute promyelocytic leukemia, AML)
result.type: IC50
value: 0.32
//
molecule: COC1=C[C@]23CCCN2CCc2cc4c(cc2[C@@H]3[C@@H]1OC(=O)[C@@](O)(CCCC(C)(C)O)CC(=O)N1CCCCC1)OCO4
test.system: NB4 (acute promyelocytic leukemia, AML)
result.type: IC50
value: 1.5
//
molecule: COC1=C[C@]23CCCN2CCc2cc4c(cc2[C@@H]3[C@@H]1OC(=O)[C@@](O)(CCCC(C)(C)O)CC(=O)NCc1cccs1)OCO4
test.system: NB4 (acute promyelocytic leukemia, AML)
result.type: IC50
value: 2.38
//
molecule: COC1=C[C@]23CCCN2CCc2cc4c(cc2[C@@H]3[C@@H]1OC(=O)[C@@](O)(CCCC(C)(C)O)CC(=O)N1CCCC(O)C1)OCO4 (stereo partly shown)
test.system: NB4 (acute promyelocytic leukemia, AML)
result.type: IC50
value: 8.31
//
molecule: COC1=C[C@]23CCCN2CCc2cc4c(cc2[C@@H]3[C@@H]1OC(=O)[C@@](O)(CCCC(C)(C)O)CC(=O)N1CCCCC1C)OCO4 (stereo partly shown)
test.system: NB4 (acute promyelocytic leukemia, AML)
result.type: IC50
value: 0.7
//
molecule: COC1=C[C@]23CCCN2CCc2cc4c(cc2[C@@H]3[C@@H]1OC(=O)[C@@](O)(CCCC(C)(C)O)CC(=O)N1CCC(N(C)C)CC1)OCO4
test.system: NB4 (acute promyelocytic leukemia, AML)
result.type: IC50
value: 0.08
//
molecule: COC1=C[C@]23CCCN2CCc2cc4c(cc2[C@@H]3[C@@H]1OC(=O)[C@@](O)(CCCC(C)(C)O)CC(=O)N1CCOCC1)OCO4
test.system: NB4 (acute promyelocytic leukemia, AML)
result.type: IC50
value: 3.22
//
molecule: COC1=C[C@]23CCCN2CCc2cc4c(cc2[C@@H]3[C@@H]1OC(=O)[C@@](O)(CCCC(C)(C)O)CC(=O)NCc1ccco1)OCO4
test.system: NB4 (acute promyelocytic leukemia, AML)
result.type: IC50
value: 15

Item CCN1CCN(C(=O)C[C@](O)(CCCC(C)(C)O)C(=O)O[C@@H]2C(OC)=C[C@]34CCCN3CCc3cc5c(cc3[C@H]24)OCO5)CC1 with NB4 (acute promyelocytic leukemia, AML) - IC50?
1.85

Query COC1=C[C@]23CCCN2CCc2cc4c(cc2[C@@H]3[C@@H]1OC(=O)[C@@](O)(CCCC(C)(C)O)CC(=O)N1CCN(c2ccccn2)CC1)OCO4 next
0.25
